Reference for the values: paper PMC4613828

For each of the molecules below, state its EC50.
System: HRV14 (human rhinovirus type 14)
protocol: Virus-cell-based antiviral assay (CPE reduction, MTS)
particulars: Human rhinovirus sp., HeLa H1 cells (footnote c), 35°C
Reply with just the number (in nM).

For the molecule CCON=Cc1ccc(OCCC(C)CCN2CCN(c3ccncc3)C2=O)cc1 (centres unmarked) , what EC50 is on record?
1500

For the molecule CCON=Cc1ccc(OCCC(C)CCN2CCN(c3ccnc(C(N)=O)c3)C2=O)cc1 (centres unmarked) , what EC50 is on record?
843

====

protocol: in vitro
particulars: African green monkey
For each of the molecules below, state its CC50.
Reply with just the number (in µM).

For the molecule CCON=Cc1ccc(OCCC(C)CCN2CCN(c3ccncc3)C2=O)cc1 (centres unmarked) [GPP3] , what CC50 is on record?
7

For the molecule CCON=Cc1ccc(OCCC(C)CCN2CCN(c3ccnc(C(N)=O)c3)C2=O)cc1 (centres unmarked) [ALD] , what CC50 is on record?
7

====

For each of the molecules below, state its EC50.
Tested on: PV2 (poliovirus type 2 strain Sabin)
protocol: microbe, parasite or virus in culture
Format: cell-based
particulars: Enterovirus C, BGM
Reply with just the number (in nM).

For the molecule CCON=Cc1ccc(OCCC(C)CCN2CCN(c3ccncc3)C2=O)cc1 (centres unmarked) , what EC50 is on record?
6

For the molecule CCON=Cc1ccc(OCCC(C)CCN2CCN(c3ccnc(C(N)=O)c3)C2=O)cc1 (centres unmarked) , what EC50 is on record?
75

====

System: CVA16 (strain G-10)
protocol: Virus-cell-based antiviral assay (CPE reduction, MTS)
Set-up: species or system coxsackievirus A16
particulars: Enterovirus A, HeLa H1 cells
endpointLabel: pEC50
pEC50 here: minus log base 10 of the concentration, concentration in moles per litre.

For the compound CCON=Cc1ccc(OCCC(C)CCN2CCN(c3ccncc3)C2=O)cc1 (centres unmarked) [GPP3] , what pEC50 is on record?
7.85

For the compound CCON=Cc1ccc(OCCC(C)CCN2CCN(c3ccnc(C(N)=O)c3)C2=O)cc1 (centres unmarked) [ALD] , what pEC50 is on record?
7.37

====

For each of the compounds below, state its pEC50.
Test system: EV71-B2 (strain 11316 genogroup B2)
protocol: Virus-cell-based antiviral assay (CPE reduction, MTS)
Set-up: species or system enterovirus 71
particulars: Enterovirus A; EV71 strain 11316 genogroup B2; RD cells
pEC50 here: minus log base 10 of the concentration, concentration in moles per litre.

For the compound CCON=Cc1ccc(OCCC(C)CCN2CCN(c3ccncc3)C2=O)cc1 (centres unmarked) [GPP3] , what pEC50 is on record?
9.02

For the compound CCON=Cc1ccc(OCCC(C)CCN2CCN(c3ccnc(C(N)=O)c3)C2=O)cc1 (centres unmarked) [ALD] , what pEC50 is on record?
7.51
